Test: Antagonist activity at PAR4 in mouse washed platelets assessed as inhibition of gamma-PAR4 agonist peptide (AYPGKF-NH2)-induced platelet aggregation preincubated for 5 mins followed by peptide addition and measured after 5 mins by aggregometer
Below, each entry is listed alongside its reported IC50.

Smiles record | IC50, nM
COc1ncc2c(-c3nc4cc(F)c5c(c4s3)C[C@H](COC(=O)Nc3ccc(C)cc3)O5)cc(C)cc2n1 | 73
COc1cc(Cl)c2nc(-c3cc(C)cc4cnc(OC(F)F)nc34)sc2c1 | 87
COCc1ncc2c(-c3nc4cc(F)c(OCCOC(=O)Nc5ccc(C(=O)N6CCOCC6)cc5)cc4s3)cc(C)cc2n1 | 89
COc1cc(Cl)c2nc(-c3cc(C)cc4cnc(N(C)C)nc34)sc2c1 | 105

* * *

Assay: Antagonist activity at PAR4 in mouse washed platelets assessed as inhibition of gamma-PAR4 agonist peptide (AYPGKF-NH2)-induced platelet aggregation preincubated for 5 mins followed by peptide addition and measured after 5 mins by aggregometer
pIC50: −log10 of the molar value.
// reported pIC50 per item

Smiles record | Censoring qualifier | pIC50
COc1cc(Cl)c2nc(-c3cc(C)cc4cnc(OCC(C)C)nc34)sc2c1 | < | 6.00
COc1cc(OC)c2nc(-c3cc(C)cc4nc(SC)ncc34)sc2c1 | < | 6.00
COc1ccc2nc(-c3cc(C)cc4nc(SC)ncc34)sc2c1 | = | 6.65
COc1cc(Cl)c2nc(-c3cc(C)cc4nc(SC)ncc34)sc2c1 | = | 6.87
COc1ccc2nc(-c3cc(C)cc4cnc(OC)nc34)sc2c1 | = | 7.05
COCOc1ncc2c(-c3nc4cc(F)c(OC)cc4s3)cc(C)cc2n1 | = | 7.60
CNc1ncc2cc(C)cc(-c3nc4c(Cl)cc(OC)cc4s3)c2n1 | = | 7.01
COCOc1ncc2c(-c3nc4c(F)cc(OC)cc4s3)cc(C)cc2n1 | = | 7.05
COc1cc2sc(-c3cc(C)cc4nc(SC)ncc34)nc2cc1F | = | 7.02
COc1ncc2c(-c3nc4cc(F)c5c(c4s3)C[C@@H](COC(=O)Nc3cc(F)cc(C#N)c3)O5)cc(C)cc2n1 | = | 6.96
COc1ncc2cc(C)cc(-c3nc4ccccc4s3)c2n1 | = | 6.25
COc1ncc2cc(C)cc(-c3nc4c(Cl)cc(Cl)cc4s3)c2n1 | = | 6.45

All values here come from BindingDB's records for PubMed 39442337.
